B1: Tyrosine-protein kinase BTK, residues 215 to 273; numbered along this chain, Q06187 (parent)
chain: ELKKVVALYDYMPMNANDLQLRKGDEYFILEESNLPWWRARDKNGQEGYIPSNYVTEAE

Variants of: B1
MEASUREMENT DESCRIPTION: abundance fitness (aPCA) (normalised: wild type 0, dead -1); higher = more abundant; growth selection in yeast, the domain comes from the species named
EXPERIMENTAL PARAMETERS: Homo sapiens
# abundance fitness per record follows
REPORTED METRIC: abundance fitness

> print(dat)
    mutation  value.observed
 1      A40R          -0.825
 2      N53L          -0.099
 3      N44M          -0.061
 4      L21T          -0.523
 5      K43T          -0.016
 6      P51L          -0.056
 7      I29A          -0.194
 8      Y54W          -0.074
 9      E47G          -0.451
10      D18F           -0.04
11      W37D          -0.129
12      A16W          -0.105
13      E31I          -0.117
14      T56I          -0.184
15      L30T           -0.03
16      N17H            0.03
17      L21S          -0.811
18      Q46C           0.029
19      N44V          -0.054
20      K43G           0.004
21      Y27G          -0.745
22      G45L           -0.08
